For each of the compounds below, state its EC50.
Tgt: μ-opioid receptor (Homo sapiens (Human))
Protocol summary: μ-opioid receptor [35S]GTPγS functional assay (HEK)
Format: biochemical

Q: GET /values?readout=EC50&item= COc1ccc2c(c1)[C@]13CCN(CC4CC4)[C@H](C2)[C@]1(O)CC1=CC(=O)NC1C3 (stereo partly drawn)
A: > 20 µM

Q: GET /values?readout=EC50&item= COc1ccc2c(c1)[C@]13CCN(C)[C@H](C2)[C@]1(O)C[C@@H]1NC(=O)O[C@@H]1C3
A: > 20 µM

Q: GET /values?readout=EC50&item= O=C1C=C2C[C@@]3(O)[C@H]4Cc5ccc(O)cc5[C@]3(C=C2N1CC1CC1)CCN4CC1CC1
A: > 20 µM
